Biological target: T1, BSA-conjugated Aβ heptapeptide AEFRHDC (C-terminal Cys coupled to NSMP-activated BSA);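 note: ELISA binding of human antibody (10 or 2 µg/ml) to plate-coated BSA–peptide conjugates, detected with HRP anti-human Ig and TMB colour, mock-treated BSA as negative control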
T1 construct: also called Peptide 2-7
T1 peptide: AEFRHDC
Test: ELISA
Readings of OD ratio 2-7/BSA for the listed binders
Give the value as a plain number.

Check out these entries, answers already filled in.
[
  {
    "binder": "MS-R #7.9.H7 IgG1 (antibody, V domains shown, full-length human IgG1; also called MAB 31; MS-Roche IgG #7.9.H7) VH: QVELVESGGGLVQPGGSLRLSCAASGFTFSSYAMSWVRQAPGKGLEWVSAINASGTRTYYADSVKGRFTISRDNSKNTLYLQMNSLRAEDTAVYYCARGKGNTHKPYGYVRYFDVWGQGTLVTVSS VL: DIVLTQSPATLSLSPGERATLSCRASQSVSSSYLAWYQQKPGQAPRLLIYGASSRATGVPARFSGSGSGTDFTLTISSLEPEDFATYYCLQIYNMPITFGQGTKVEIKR",
    "recorded value": 30
  },
  {
    "binder": "MS-R #7.12 IgG1 (antibody, V domains shown, full-length human IgG1) VH: QVELVESGGGLVQPGGSLRLSCAASGFTFSSYGMSWVRQAPGKGLEWVSNISGSGSSTYYADSVKGRFTISRDNSKNTLYLQMNSLRAEDTAVYYCARGKGNTHKPYGYVRYFDVWGQGTLVTVSS VL: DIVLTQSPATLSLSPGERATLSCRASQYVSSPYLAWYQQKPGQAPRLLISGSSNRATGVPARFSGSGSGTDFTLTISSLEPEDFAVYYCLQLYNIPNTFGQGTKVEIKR",
    "recorded value": 19
  }
]

For record MS-R IgG 8.2.H2 × 8.2.L1 (antibody, V domains shown, full-length human IgG) VH: QVELVESGGGLVQPGGSLRLSCAASGFTFSSYAMSWVRQAPGKGLEWVSAISRTGSKTYYADSVKGRFTISRDNSKNTLYLQMNSLRAEDTAVYYCARLLSRGYNGYYHKFDVWGQGTLVTVSS VL: DIVLTQSPATLSLSPGERATLSCRASQRVSGRYLAWYQQKPGQAPRLLIYGASSRATGVPARFSGSGSGTDFTLTISSLEPEDFATYYCQQLSSYPPTFGQGTKVEIKR the listed OD ratio 2-7/BSA is 13

For record MS-R IgG1 3.6.H5 × 3.6.L2 (antibody, V domains shown, full-length human IgG1; VH entry starts at QLVESGG) VH: ELVESGGGLVQPGGSLRLSCAASGFTFSSYAMSWVRQAPGKGLEWVSAISESGKTKYYADSVKGRFTISRDNSKNTLYLQMNSLRAEDTAVYYCARLTHYARYYRYFDVWGQGTLVTVSS VL: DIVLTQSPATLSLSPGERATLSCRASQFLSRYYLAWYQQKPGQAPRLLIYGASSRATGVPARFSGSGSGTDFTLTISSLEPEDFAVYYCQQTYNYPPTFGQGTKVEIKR the listed OD ratio 2-7/BSA is 11

For record MSR 7.9.H2 IgG1 (antibody, V domains shown, full-length human IgG1) VH: QVELVESGGGLVQPGGSLRLSCAASGFTFSSYAMSWVRQAPGKGLEWVSAINADGNRKYYADSVKGRFTISRDNSKNTLYLQMNSLRAEDTAVYYCARGKGNTHKPYGYVRYFDVWGQGTLVTVSS VL: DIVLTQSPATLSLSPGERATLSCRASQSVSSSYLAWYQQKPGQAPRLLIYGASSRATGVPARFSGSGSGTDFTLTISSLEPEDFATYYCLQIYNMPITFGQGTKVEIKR the listed OD ratio 2-7/BSA is 13
